Source listed as patent US7718808B2.

// reported melting point for each item listed

| COMPOUND | melting point |
| --- | --- |
| CCOCC(=O)Nc1nc(-c2ccco2)c(C(=O)C2CCOCC2)s1 [Compound 532] | 121 to 126 °C |
| O=C(CCc1ccccc1)Nc1nc(-c2ccco2)c(C(=O)C2CCOCC2)s1 [Compound 527] | 161 to 164 °C |
| O=C(Nc1nc(-c2ccco2)c(C(=O)c2ccccn2)s1)OC(CF)CF [Compound 255] | 158 to 159 °C |
| CN1CCN(CC(=O)Nc2nc(-c3ccco3)c(C(=O)c3ccccn3)s2)CC1 [Compound 272] | 136 to 145 °C |
| O=C(Nc1nc(-c2ccco2)c(-c2ccncc2)s1)c1cc[nH]c(=O)c1 [Compound 112] | 277 to 281 °C |

---

// reported melting point for each item listed

| SMILES STRING | melting point |
| --- | --- |
| O=C(Nc1nc(-c2ccco2)c(C(=O)c2ccco2)s1)c1ccncc1 | 245 to 248 °C |
| O=C(c1ccccn1)c1sc(NC(=O)N2CCOCC2)nc1-c1ccco1 | 144 to 145 °C |
| O=C1CCC(C(=O)c2sc(NC(=O)c3ccncc3)nc2-c2ccco2)CC1 | 206 to 212 °C |
| O=C(Nc1nc(-c2ccco2)c(-c2ccncc2)s1)c1ccn(Cc2ccccc2)c(=O)c1 | 244 to 248 °C |
| N#Cc1ccc(C(=O)Nc2nc(-c3ccco3)c(C(=O)C3CCOCC3)s2)cc1 | 231 to 234 °C |
| O=C(Nc1nc(-c2ccco2)c(C(=O)C2CCOCC2)s1)c1ccc(CN2CCOCC2)cc1 | 92 to 96 °C |
| CCn1ccc(C(=O)c2sc(NC(=O)c3ccncc3)nc2-c2ccco2)cc1=O | 277 to 281 °C |
| CN1CCN(CC(=O)Nc2nc(-c3ccco3)c(C(=O)c3ccccn3)s2)CC1=O.Cl | 170 to 188 °C |

---

| SMILES STRING | melting point |
| --- | --- |
| O=C(Nc1nc(-c2ccco2)c(C(=O)C2CCOCC2)s1)c1ccc(CN2CCCCC2)cc1 | 160 to 162 °C |
| O=C(Nc1nc(-c2ccco2)c(C(=O)C2CCOCC2)s1)c1ccc(Cl)nc1 | 233 to 235 °C |
| O=C(Nc1nc(-c2ccco2)c(C(=O)C2CCOCC2)s1)c1ccc(OC(F)(F)F)cc1 | 177 to 180 °C |
| CCOC(=O)Nc1nc(-c2ccco2)c(C(=O)c2ccccn2)s1 | 158 to 159 °C |

---

// reported melting point for each item listed

| COMPOUND | melting point |
| --- | --- |
| O=C(C=Cc1ccccc1)Nc1nc(-c2ccco2)c(C(=O)C2CCOCC2)s1 [Compound 528] | 253 to 256 °C |
| CC(C)C(=O)c1sc(NC(=O)C2CC2)nc1-c1ccco1 [Compound 394] | 178 to 182 °C |
| O=C(Nc1nc(-c2ccco2)c(C(=O)c2cccs2)s1)c1ccncc1 [Compound 347] | 208 to 210 °C |
| O=C(Nc1nc(-c2ccco2)c(C(=O)C2CCOCC2)s1)c1ccccn1 [Compound 507] | 185 to 186 °C |
| O=C(Nc1nc(-c2ccco2)c(C(=O)C2CCCC2)s1)C1CC1 [Compound 434] | 182 to 187 °C |
| COc1ccc(C(=O)Nc2nc(-c3ccco3)c(C(=O)C3CCOCC3)s2)cc1OC [Compound 487] | 289 to 292 °C |
| Cc1ncccc1C(=O)Nc1nc(-c2ccco2)c(C(=O)c2ccccn2)s1 [Compound 221] | 186 to 187 °C |
| COc1ccc(C(=O)c2sc(NC(=O)c3ccncc3)nc2-c2ccco2)cn1 [Compound 319] | 246 to 257 °C (dec.) |
| CC(C)(C)C(=O)Nc1nc(-c2ccco2)c(-c2ccncc2)s1 [Compound 104] | 240 to 241 °C |
| COc1cccc(C(=O)Nc2nc(-c3ccco3)c(C(=O)C3CCOCC3)s2)c1OC [Compound 483] | 198 to 200 °C |
| COCCN(C)CC(=O)Nc1nc(-c2ccco2)c(C(=O)C2CCOCC2)s1 [Compound 534] | 103 to 105 °C |
| O=C(Nc1nc(-c2ccco2)c(C(=O)c2ccccn2)s1)c1ccc(Br)o1 [Compound 235] | 211 to 212 °C |
| O=C(Nc1nc(-c2ccco2)c(C(=O)C2CCOCC2)s1)c1cccc2c1OCCO2 [Compound 495] | 188 to 190 °C |
| O=C(CN1CCSCC1)Nc1nc(-c2ccco2)c(C(=O)c2ccccn2)s1 [Compound 282] | 148 to 149 °C |
| Cn1cc(C(=O)Nc2nc(-c3ccco3)c(C(=O)c3ccccc3)s2)ccc1=O [Compound 150] | 220 to 225 °C |
| O=C(Nc1nc(-c2ccco2)c(C(=O)C2CCOCC2)s1)c1cccs1 [Compound 517] | 231 to 232 °C |
| O=C(Nc1nc(-c2ccco2)c(C(=O)c2ccccn2)s1)OC1CCOCC1 [Compound 253] | 144 to 145 °C |
| O=C(Nc1nc(-c2ccco2)c(C(=O)C2CCOCC2)s1)c1cccnc1 [Compound 501] | 209 to 212 °C |

---

// reported melting point for each item listed
MEASURE NAME: melting point

| COMPOUND | MEASURE NAME | VALUE |
| --- | --- | --- |
| COCCN(C)c1cc(C(=O)Nc2nc(-c3ccco3)c(C(=O)c3ccccc3)s2)ccn1 [Compound 145] | melting point | 145 to 147 °C |
| COCC#CC(=O)c1sc(NC(=O)c2ccncc2)nc1-c1ccco1 [Compound 413] | melting point | 198 to 200 °C |
| O=C(Nc1nc(-c2ccco2)c(C(=O)C2CCC2)s1)c1ccncc1 [Compound 424] | melting point | 227 to 235 °C (dec.) |
| COc1ccccc1C(=O)Nc1nc(-c2ccco2)c(C(=O)C2CCOCC2)s1 [Compound 461] | melting point | 181 to 184 °C |
| O=C(Nc1nc(-c2ccco2)c(C(=O)c2ccccc2)s1)c1ccnnc1 [Compound 153] | melting point | 225 to 248 °C |
| Cc1ccc(C(=O)c2sc(NC(=O)c3ccoc3)nc2-c2ccco2)cn1 [Compound 316] | melting point | 229 to 231 °C |
| O=C(Nc1nc(-c2ccco2)c(-c2ccncc2)s1)c1ccc(F)cc1 [Compound 102] | melting point | 270 to 300 °C (dec.) |
| O=C(CN1CCC(N2CCCCC2)CC1)Nc1nc(-c2ccco2)c(C(=O)c2ccccn2)s1 [Compound 270] | melting point | 214 to 220 °C (dec.) |
| CCCC(=O)Nc1nc(-c2ccco2)c(C(=O)c2ccccn2)s1 [Compound 189] | melting point | 148 to 149 °C |
| O=C(Nc1nc(-c2ccco2)c(C(=O)C2CCOCC2)s1)c1ccc(F)c(F)c1 [Compound 493] | melting point | 208 to 210 °C |
| Cn1cc(C(=O)Nc2nc(-c3ccco3)c(C(=O)C3CCOCC3)s2)cn1 [Compound 519] | melting point | 243 to 247 °C |
| CC(C)(C)C(=O)Nc1nc(-c2ccco2)c(C(=O)c2ccccn2)s1 [Compound 190] | melting point | 186 to 187 °C |
| CC(C)NC(=O)Nc1nc(-c2ccco2)c(C(=O)c2ccccn2)s1 [Compound 258] | melting point | 182 to 186 °C |
| O=C(Nc1nc(-c2ccco2)c(C(=O)C2CCOCC2)s1)c1ccnc(Cl)c1 [Compound 499] | melting point | 185 to 186 °C |
| O=C(Nc1nc(-c2ccco2)c(C(=O)c2ccccn2)s1)c1cnc(C2CC2)nc1 [Compound 229] | melting point | 150 to 154 °C |
| COc1ccc(C(=O)Nc2nc(-c3ccco3)c(C(=O)c3ccccn3)s2)cc1OC [Compound 203] | melting point | 169 to 170 °C |
| COC1CCC(C(=O)c2sc(NC(=O)c3ccncc3)nc2-c2ccco2)CC1 (stereo not drawn) [Compound 442] | melting point | 180 to 187 °C |
| Cc1occc1C(=O)Nc1nc(-c2ccco2)c(C(=O)c2ccccn2)s1 [Compound 239] | melting point | 183 to 186 °C |

---

// reported melting point for each item listed

| COMPOUND | melting point |
| --- | --- |
| COc1ccc(C(=O)Nc2nc(-c3ccco3)c(C(=O)c3ccccn3)s2)cc1 | 187 to 188 °C |
| O=C(Nc1nc(-c2ccco2)c(C(=O)c2ccccn2)s1)c1cnc2occc2c1 | 234 to 235 °C |
| COC1(CN2CCN(CC(=O)Nc3nc(-c4ccco4)c(C(=O)C4CCOCC4)s3)CC2)CC1 | 155 to 157 °C |
| O=C(Nc1nc(-c2ccco2)c(C(=O)c2nccs2)s1)c1ccncc1 | 228 to 240 °C |
| Cc1ccoc1C(=O)Nc1nc(-c2ccco2)c(C(=O)c2ccccn2)s1 | 174 to 176 °C |
| O=C(Nc1nc(-c2ccco2)c(C(=O)C2CCOCC2)s1)C1CCOC1 (centres unmarked) | 164 to 166 °C |
| O=C(Nc1nc(-c2ccco2)c(C(=O)C2CCOCC2)s1)c1ccccc1OC(F)(F)F | 131 to 134 °C |
| O=C(c1cccnc1)c1sc(NC(=O)C2CC2)nc1-c1ccco1 | 231 to 233 °C |
| O=C(Nc1nc(-c2ccco2)c(C(=O)c2ccccn2)s1)OC1CCC1 | 152 to 153 °C |
| Cc1cc(C(=O)Nc2nc(-c3ccco3)c(C(=O)c3ccccn3)s2)no1 | 209 to 213 °C |
| O=C(Nc1nc(-c2ccco2)c(C(=O)c2ccccn2)s1)c1ccncc1Cl | 206 to 207 °C |
| O=C(Nc1nc(-c2ccco2)c(C(=O)c2ccccn2)s1)c1cc(Cl)nc(Cl)c1 | 254 to 258 °C |
| O=C(Nc1nc(-c2ccco2)c(C(=O)c2ccccn2)s1)c1ccco1 | 184 to 185 °C |
| O=C(c1ccccn1)c1sc(NC(=O)C2CCN(Cc3ccncc3)CC2)nc1-c1ccco1 | 240 to 241 °C |
| O=C(Nc1nc(-c2ccco2)c(C(=O)c2ccccn2)s1)c1ccnnc1 | 270 to 274 °C |
| O=C(CN1CCN(c2ccccn2)CC1)Nc1nc(-c2ccco2)c(C(=O)c2ccccn2)s1 | 215 to 218 °C |
| O=C(Nc1nc(-c2ccco2)c(C(=O)c2ccccn2)s1)c1ccn(Cc2ccccc2)c(=O)c1 | 269 to 270 °C |
